test: Biodistribution study with lead-212; assay type: in vivo, mouse; conditions: mouse, lungs, intravenous, 100 kBq, 1 h p.i.; n = 4; read-out: Lungs uptake
parameter measured: tissue uptake at 1 h
A complete answer gives the number and then names the unit.

Study these solved cases before continuing.
[
  {
    "molecule": "C[C@@H](O)[C@H](NC(=O)[C@@H]1CSSC[C@H](NC(=O)[C@@H](Cc2ccccc2)NC(=O)CN2CCN(CC(N)=O)CCN(CC(N)=O)CCN(CC(N)=O)CC2)C(=O)N[C@@H](Cc2ccc(O)cc2)C(=O)N[C@H](Cc2c[nH]c3ccccc23)C(=O)N[C@@H](CCCCN)C(=O)N[C@@H]([C@@H](C)O)C(=O)N1)C(=O)O [[^212Pb]Pb-DOTAM-TATE, metal not drawn, reference compound]",
    "tissue uptake at 1 h": "2.75 %ID/g"
  },
  {
    "molecule": "C[C@@H](O)[C@H](NC(=O)[C@@H]1CSSC[C@H](NC(=O)[C@@H](Cc2ccccc2)NC(=O)[C@H]2CC[C@H](CNC(=O)CN3CCN(CC(N)=O)CCN(CC(N)=O)CCN(CC(N)=O)CC3)CC2)C(=O)N[C@@H](Cc2ccc(O)cc2)C(=O)N[C@H](Cc2c[nH]c3ccccc23)C(=O)N[C@@H](CCCCN)C(=O)N[C@@H]([C@@H](C)O)C(=O)N1)C(=O)O [[^212Pb]Pb-eSOMA-01, metal not drawn]",
    "tissue uptake at 1 h": "4.05 %ID/g"
  }
]

input: What tissue uptake at 1 h value was documented for this molecule, C[C@@H](O)[C@H](NC(=O)[C@@H]1CSSC[C@H](NC(=O)[C@@H](Cc2ccccc2)NC(=O)CN2CCC(NC(=O)CN3CCN(CC(N)=O)CCN(CC(N)=O)CCN(CC(N)=O)CC3)CC2)C(=O)N[C@@H](Cc2ccc(O)cc2)C(=O)N[C@H](Cc2c[nH]c3ccccc23)C(=O)N[C@@H](CCCCN)C(=O)N[C@@H]([C@@H](C)O)C(=O)N1)C(=O)O [[^212Pb]Pb-eSOMA-02, metal not drawn] ?
output: 3.49 %ID/g

* * *

Experiment: Ex vivo biodistribution with lead-203
Format: in vivo, mouse
Conditions: mouse, heart; 24 h post-injection; n = 4; read-out: Heart uptake
Description: Six-week-old male Balb/c nu/nu-specific and opportunistic pathogen-tree (SOPF) mice (Janvier Labs, Le Genest-Saint-Isle, France) were housed in individually ventilated cages, with four mice per cage. Upon arrival, the mice were acclimated for 1 week with access to food and water ad libitum. […]
parameter measured: tissue uptake at 24 h (%ID/g)
Report the value in %ID/g with no unit label.

[
  {
    "compound": "C[C@@H](O)[C@H](NC(=O)[C@@H]1CSSC[C@H](NC(=O)[C@@H](Cc2ccccc2)NC(=O)CN2CCC(NC(=O)CN3CCN(CC(N)=O)CCN(CC(N)=O)CCN(CC(N)=O)CC3)CC2)C(=O)N[C@@H](Cc2ccc(O)cc2)C(=O)N[C@H](Cc2c[nH]c3ccccc23)C(=O)N[C@@H](CCCCN)C(=O)N[C@@H]([C@@H](C)O)C(=O)N1)C(=O)O [[^203Pb]Pb-eSOMA-02, metal not drawn]",
    "unit text": "%ID/g",
    "value": 0.09
  }
]

Field: next compound
input: What tissue uptake at 24 h value was documented for this compound, C[C@@H](O)[C@H](NC(=O)[C@@H]1CSSC[C@H](NC(=O)[C@@H](Cc2ccccc2)NC(=O)[C@H]2CC[C@H](CNC(=O)CN3CCN(CC(N)=O)CCN(CC(N)=O)CCN(CC(N)=O)CC3)CC2)C(=O)N[C@@H](Cc2ccc(O)cc2)C(=O)N[C@H](Cc2c[nH]c3ccccc23)C(=O)N[C@@H](CCCCN)C(=O)N[C@@H]([C@@H](C)O)C(=O)N1)C(=O)O [[^203Pb]Pb-eSOMA-01, metal not drawn] ?
output: 0.05

Data provenance: paper PMC10384862
